Target: TNFα (Homo sapiens)
Experiment: TNF-Induced HEK-Blue Assay
Assay type: cell-based
Conditions: HEK-Blue-CD40L cells, NF-kB-driven secreted alkaline phosphatase reporter; TNFα 0.5 ng/ml; 18 h; read-out: TNF induced HEK-Blue assay IC50 value
pIC50: −log10 of the molar value. Starred links: 1 amine or outer side, 2 acyl side, 3 side chain; linkers in the order of their positions; H or OH if unused. Positions of bridges follow the written chain, without caps; N, C: chain ends. Non-standard residues stand in square brackets, D forms with d. Residues, ends and D or L forms follow the SMILES beside them. ξ: configuration not given here. X2 = O=C(O)c1ccc(CNC(=O)c2cccc(-c3ccc(C[C@H](N[*:1])C(=O)[*:2])cc3)c2)cc1; Bip(4'-NHAc) = CC(=O)Nc1ccc(-c2ccc(C[C@H](N)C(=O)O)cc2)cc1; Ala(morpholin-4-yl) = N[C@@H](CN1CCOCC1)C(=O)O; Bip = N[C@@H](Cc1ccc(-c2ccccc2)cc1)C(=O)O; Ala(4-THP) = N[C@@H](CC1CCOCC1)C(=O)O; Val(3-OH) = CC(C)(O)[C@H](N)C(=O)O; ξV = CC(C)C(N)C(=O)O; Sar = CNCC(=O)O
measurementKind: pIC50

Sample answers from the record:
Ask | Query (molecule): CC(C)C[C@@H]1NC(=O)[C@H](CCCNC(=N)N)NC(=O)C(C(C)C)NC(=O)[C@@H]2CCCN2C(=O)[C@H](C(C)C)NC(=O)[C@@H](CCCNC(=N)N)NC(=O)[C@H](CC(=O)O)NC(=O)[C@@H]2CCCN2C(=O)CN(C)C(=O)[C@H](Cc2ccc(-c3cccc(C(=O)NCc4ccc(C(=O)O)cc4)c3)cc2)NC(=O)[C@H](Cc2ccc(-c3ccccc3)cc2)NC(=O)[C@H](CC2CCOCC2)NC(=O)CSC[C@@H](C(=O)NCC(N)=O)NC1=O (stereo partly shown) [Example 303] ({CH2CO}-[Ala(4-THP)][Bip][X2][Sar]PD[dR]VP[ξV]RLCG-NH2; thioether N-13) ; field requested: pIC50
Reply | 5.70 to 6.70

Ask | Query (molecule): CC(C)C[C@@H]1NC(=O)[C@H](Cc2ccc(O)cc2)NC(=O)[C@H](C(C)C)NC(=O)[C@@H]2CCCN2C(=O)[C@H](C(C)C)NC(=O)[C@@H](CCCNC(=N)N)NC(=O)[C@H](CC(=O)O)NC(=O)[C@H](Cc2ccc(O)cc2)NC(=O)CN(C)C(=O)[C@H](Cc2ccc(-c3ccccc3)cc2)NC(=O)[C@H](Cc2ccc(-c3ccccc3)cc2)NC(=O)[C@H](C(C)(C)O)NC(=O)CSC[C@@H](C(=O)NCC(N)=O)NC1=O [Example 69] ({CH2CO}-[Val(3-OH)][Bip][Bip][Sar]YD[dR]VPVYLCG-NH2; thioether N-13) ; field requested: pIC50
Reply | > 7.30

Ask | Query (molecule): CC(C)C[C@@H]1NC(=O)[C@H](Cc2ccc(O)cc2)NC(=O)[C@H](C(C)C)NC(=O)CNC(=O)[C@H](C(C)C)NC(=O)[C@H](CCCNC(=N)N)NC(=O)[C@H](CC(=O)O)NC(=O)[C@@H]2CCCN2C(=O)CN(C)C(=O)[C@H](Cc2ccc(-c3ccccc3)cc2)NC(=O)[C@H](Cc2ccc(-c3ccccc3)cc2)NC(=O)[C@H](CN2CCOCC2)NC(=O)CSC[C@@H](C(=O)NCC(N)=O)NC1=O [Example 139] ({CH2CO}-[Ala(morpholin-4-yl)][Bip][Bip][Sar]PDRVGVYLCG-NH2; thioether N-13) ; field requested: pIC50
Reply | 5.70 to 6.70

Now consider a different molecule.
Ask | Query (molecule): CC(=O)Nc1ccc(-c2ccc(C[C@@H]3NC(=O)[C@H](Cc4ccc(-c5ccccc5)cc4)NC(=O)[C@H](CN4CCOCC4)NC(=O)CSC[C@@H](C(=O)NCC(N)=O)NC(=O)[C@H](CC(C)C)NC(=O)[C@H](CCCNC(=N)N)NC(=O)[C@H](C(C)C)NC(=O)[C@@H]4CCCN4C(=O)[C@H](C(C)C)NC(=O)[C@H](CCCNC(=N)N)NC(=O)[C@H](CC(=O)O)NC(=O)[C@H](Cc4ccc(O)cc4)NC(=O)CNC3=O)cc2)cc1 [Example 192] ({CH2CO}-[Ala(morpholin-4-yl)][Bip][Bip(4'-NHAc)]GYDRVPVRLCG-NH2; thioether N-13) ; field requested: pIC50
Reply | 6.70 to 7.30

###

Below, each entry is listed with its recorded pIC50.
Target: TNFα (Homo sapiens, UniProt P01375)
Sequence (P01375 77-233 limits assumed): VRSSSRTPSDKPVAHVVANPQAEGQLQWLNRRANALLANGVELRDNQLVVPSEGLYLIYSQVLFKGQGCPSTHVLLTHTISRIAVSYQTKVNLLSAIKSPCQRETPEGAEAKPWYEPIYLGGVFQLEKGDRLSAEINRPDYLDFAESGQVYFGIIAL
Test: TNF-Induced HEK-Blue Assay
Assay type: cell-based
Details: HEK-Blue-CD40L cells, NF-kB-driven secreted alkaline phosphatase reporter; TNFα 0.5 ng/ml; 18 h; read-out: TNF induced HEK-Blue assay IC50 value
pIC50: −log10 of the molar value. Positions of bridges follow the written chain, without caps; N, C: chain ends. Non-standard residues stand in square brackets, D forms with d. Residues, ends and D or L forms follow the SMILES beside them. Bip(4'-NHAc) = CC(=O)Nc1ccc(-c2ccc(C[C@H](N)C(=O)O)cc2)cc1; Bip = N[C@@H](Cc1ccc(-c2ccccc2)cc1)C(=O)O; 2Thi = N[C@@H](Cc1cccs1)C(=O)O; Cha = N[C@@H](CC1CCCCC1)C(=O)O; Chg = N[C@H](C(=O)O)C1CCCCC1; Tle = CC(C)(C)[C@H](N)C(=O)O; Sar = CNCC(=O)O

Ask | Query (molecule): CC(=O)Nc1ccc(-c2ccc(C[C@@H]3NC(=O)[C@H](Cc4ccc(-c5ccccc5)cc4)NC(=O)[C@H](CC4CCCCC4)NC(=O)CSC[C@@H](C(=O)NCC(N)=O)NC(=O)[C@H](CC(C)C)NC(=O)[C@H](Cc4cnc[nH]4)NC(=O)[C@H](C4CCCCC4)NC(=O)[C@@H]4CCCN4C(=O)[C@H](CC(N)=O)NC(=O)[C@@H](CCCNC(=N)N)NC(=O)[C@H](CC(=O)O)NC(=O)[C@H](Cc4cnc[nH]4)NC(=O)CN(C)C3=O)cc2)cc1 [Example 301] ({CH2CO}-[Cha][Bip][Bip(4'-NHAc)][Sar]HD[dR]NP[Chg]HLCG-NH2; thioether N-13) ; field requested: pIC50
Reply | 6.70 to 7.30

Further cases:
Ask | Query (molecule): CC(=O)Nc1ccc(-c2ccc(C[C@@H]3NC(=O)[C@H](Cc4ccc(-c5ccccc5)cc4)NC(=O)[C@H](C(C)(C)C)NC(=O)CSC[C@@H](C(=O)NCC(N)=O)NC(=O)[C@H](CC(C)C)NC(=O)[C@H](Cc4cccs4)NC(=O)[C@H](C(C)C)NC(=O)[C@@H]4CCCN4C(=O)[C@H](C(C)C)NC(=O)[C@@H](CCCNC(=N)N)NC(=O)[C@H](CC(=O)O)NC(=O)[C@H](Cc4ccc(O)cc4)NC(=O)CN(C)C3=O)cc2)cc1 [Example 259] ({CH2CO}-[Tle][Bip][Bip(4'-NHAc)][Sar]YD[dR]VPV[2Thi]LCG-NH2; thioether N-13) ; field requested: pIC50
Reply | > 7.30
